Test system: MDA-MB-231 (human adenocarcinoma, breast cancer)
Test: WST-1 antiproliferative assay, breast cancer MDA-MB-231
Assay type: cell-based
Conditions: WST-1 test, incubation time 72 h; read-out: Human Cell Line/IC50 ± SD MDA-MB-231
Procedure: As a reference, the cytotoxic agent cisplatin was applied. […] The antiproliferative effect of the synthesized compounds was determined using the Cell Proliferation Reagent WST-1 assay (Roche Diagnostics, Mannheim, Germany). […] After an exposure to the tested compounds at concentration varying in the range 0.4–400 nM/mL, the cell viability was quantified by a cell proliferation assay. […]
measured_parameter: pIC50
// returns pIC50 (minus log10 of molar concentration), number only

Problem: Quick one: pIC50 for N.N.[Cl][Pt][Cl] [cisplatin, reference compound] ?
Solution: 4.59

---

measured_parameter: melting point

compound_smiles	melting point
COC1=C(Cl)C(=O)c2cccnc2C1=O	161 to 163 °C

Problem: Quick one: melting point for "C=CCOC1=C(Cl)C(=O)c2cccnc2C1=O" ?
Solution: 89 to 90 °C

Problem: Quick one: melting point for "CCOC1=C(OCC)C(=O)c2ncccc2C1=O" ?
Solution: 69 to 70 °C

Problem: Quick one: melting point for "C=CCOC1=C(OCC=C)C(=O)c2ncccc2C1=O" ?
Solution: 135 to 136 °C

Problem: Quick one: melting point for "COC1=C(OC)C(=O)c2ncccc2C1=O" ?
Solution: 132 to 133 °C

Problem: Quick one: melting point for "O=C1C(OCCCl)=C(OCCCl)C(=O)c2ncccc21" ?
Solution: 189 to 191 °C

Problem: Quick one: melting point for "CCCOC1=C(OCCC)C(=O)c2ncccc2C1=O" ?
Solution: 133 to 135 °C

Problem: Quick one: melting point for "O=C1C(Cl)=C(OCCCl)C(=O)c2ncccc21" ?
Solution: 114 to 116 °C

---

In this section, each of the molecules is paired with its reported melting point.

In the examples that follow, each entry is paired with its recorded melting point.
molecule	melting point
CCOC1=C(Cl)C(=O)c2cccnc2C1=O [Compound 3, 6-Chloro-7-ethoxy-5,8-quinolinedione]	112 to 114 °C
N#CCCOC1=C(OCCC#N)C(=O)c2ncccc2C1=O [Compound 16, 6,7-di(2-Cyanoethoxy)-5,8-quinolinedione]	45 to 47 °C
CCCOC1=C(Cl)C(=O)c2cccnc2C1=O [Compound 4, 6-Chloro-7-propoxy-5,8-quinolinedione]	121 to 122 °C
N#CCCOC1=C(Cl)C(=O)c2cccnc2C1=O [Compound 7]	177 to 179 °C
O=C1C(Cl)=C(OC2CCCCC2)C(=O)c2ncccc21 [Compound 8]	123 to 124 °C

Pending molecule:
Problem: Quick one: melting point for O=C1C(OCC(F)(F)F)=C(OCC(F)(F)F)C(=O)c2ncccc21 [Compound 15] ?
Solution: 110 to 111 °C
